Documented kinase still bound, per cent of control across a set of molecules
target: PKN3 (M.tuberculosis) (UniProt Q6P5Z2); experiment: KINOMEscan competition binding; settings: compound 1.0 µM
Sequence (Q6P5Z2 whole entry, looked up): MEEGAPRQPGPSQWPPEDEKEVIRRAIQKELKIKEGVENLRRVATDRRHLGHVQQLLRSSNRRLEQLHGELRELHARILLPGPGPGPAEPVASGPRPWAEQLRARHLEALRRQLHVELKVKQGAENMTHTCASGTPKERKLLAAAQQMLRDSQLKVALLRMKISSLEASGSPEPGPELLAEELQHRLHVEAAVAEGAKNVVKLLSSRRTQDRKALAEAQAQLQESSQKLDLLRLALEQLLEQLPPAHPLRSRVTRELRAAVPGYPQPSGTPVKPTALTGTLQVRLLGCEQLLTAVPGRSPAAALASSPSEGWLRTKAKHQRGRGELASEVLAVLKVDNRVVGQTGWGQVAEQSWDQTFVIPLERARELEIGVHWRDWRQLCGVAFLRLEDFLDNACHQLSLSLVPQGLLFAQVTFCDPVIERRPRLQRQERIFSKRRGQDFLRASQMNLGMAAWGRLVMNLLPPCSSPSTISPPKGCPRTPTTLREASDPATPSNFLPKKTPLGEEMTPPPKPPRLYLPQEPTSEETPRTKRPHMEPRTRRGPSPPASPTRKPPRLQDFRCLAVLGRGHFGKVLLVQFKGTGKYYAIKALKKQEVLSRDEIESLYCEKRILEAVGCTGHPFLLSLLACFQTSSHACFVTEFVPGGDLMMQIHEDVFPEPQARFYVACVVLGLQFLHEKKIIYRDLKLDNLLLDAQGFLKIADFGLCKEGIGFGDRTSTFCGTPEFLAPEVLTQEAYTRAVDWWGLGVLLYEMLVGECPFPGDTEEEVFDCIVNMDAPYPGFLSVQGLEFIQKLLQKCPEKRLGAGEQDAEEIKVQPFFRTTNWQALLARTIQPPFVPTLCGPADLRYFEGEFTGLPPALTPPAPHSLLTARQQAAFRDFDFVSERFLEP
metricName: kinase still bound, per cent of control

- CN(C)C/C=C/C(=O)Nc1cccc(C(=O)Nc2ccc(Nc3nccc(/C(C#N)=C4\Nc5ccccc5S4)n3)cc2)c1: 53%
- Cc1cc(NC(=O)c2cccc(NC(=O)/C=C/CN(C)C)c2)ccc1Nc1nccc(-c2cccnc2)n1: 100%
- CN(C)C/C=C/C(=O)Nc1cccc(C(=O)Nc2ccc(Nc3nccc(-c4c(-c5ccccc5)nn5ccccc45)n3)cc2)c1: 100%
- CN(C)C/C=C/C(=O)Nc1cccc(C(=O)Nc2ccc(Nc3nccc(-c4cccnc4)n3)cc2)c1: 69%
